Where do the numbers come from? From PubChem BioAssay (NCATS).

Test: Cell Viability - NIH 3T3 (AID 541);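 further: cells exposed to compound for 40 hours; nearly all actives have a fitted effect of over 25% in size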
Conditions: NIH 3T3 cell viability, qHTS; at 92.2 µM (top of the series)
Records with an inconclusive call do not appear.
We label by threshold. Values of activity change, negative = cytotoxicity strictly beneath -20% are true. Values of -20% and up are false.

[
  {
    "COMPOUND": "O=C(c1ccccc1)c1ccccc1",
    "CATEGORY LABEL": "true"
  }
]

Prompt line: Is activity change, negative = cytotoxicity of CCCCC(CC)COC(=O)c1ccccc1C(=O)O (stereo not drawn) strictly below -20%?
Response line: false

Prompt line: Problem: For the compound Cc1cc(C(C)(C)C)c(O)c(C(C)(C)C)c1 , is activity change, negative = cytotoxicity under -20%?
Response line: false

Prompt line: Record Nc1ccc(O)cc1 : is its activity change, negative = cytotoxicity strictly below -20%?
Response line: true

Prompt line: Please let me know if Cc1ccc(O)cc1 shows activity change, negative = cytotoxicity below -20%.
Response line: false

Prompt line: Say whether its activity change, negative = cytotoxicity is strictly beneath -20%. Entry: CC(=O)OC/C=C(C)/C=C/C=C(C)/C=C/C1=C(C)CCCC1(C)C
Response line: true

Prompt line: Item CC(C)C(C)(C)C(C)(C)C(C)(C)S : activity change, negative = cytotoxicity beneath -20%, strictly?
Response line: false

Prompt line: Does OCc1c[nH]c2ccccc12 have activity change, negative = cytotoxicity strictly under -20%?
Response line: false

----------
Assay: S16 Schwann cell PMP22 intronic element firefly luciferase assay (AID 624032); further: nearly all actives have a fitted effect of over 30% in size
Conditions: S16 rat Schwann cells, PMP22 element FLuc, 24 h; series mostly up to 57.5 µM
Results filed as inconclusive are left out. Activity calls are given as the source filed them. Calls come from the whole dose curve; as a rule, active = well fitted inhibition curve with a large enough effect; inconclusive = small, poorly fitted or top-dose-only effect; inactive = no such curve, though single readings can be large or run the other way.
Can you answer with just one of these options? active, inactive

[
  {
    "MOLECULE": "CN1CCCN(C(c2ccccc2)c2ccc(Cl)cc2)CC1 (stereo not given)",
    "CATEGORY LABEL": "active"
  },
  {
    "MOLECULE": "CN1CCC(Nc2ncc3ncnc(Nc4ccc(F)c(Cl)c4)c3n2)CC1",
    "CATEGORY LABEL": "active"
  },
  {
    "MOLECULE": "O=S(=O)(O)c1ccc2nc(-c3ccccc3)[nH]c2c1",
    "CATEGORY LABEL": "inactive"
  }
]

Prompt line: Returns: the outcome recorded for O=[N+]([O-])c1ccc(O)c2ncccc12 in this assay.
Response line: inactive

Prompt line: Please state the recorded outcome for this molecule: Nc1ncnc2nc[nH]c12
Response line: inactive

----------
Assay: qHTS of pediatric cancer cell lines to identify multiple opportunities for drug repurposing: Primary screen for OHS-50 cells (AID 1347103); further: nearly all actives have a fitted effect of over 40% in size
Conditions: OHS-50 osteosarcoma viability, CellTiter-Glo luminescence, 48 h; series mostly up to 57.3 µM
Results filed as inconclusive are left out. Calls of active or inactive are those of the source. Calls follow the shape of the dose curve; as a rule, active = well fitted cell-killing curve with a large enough effect; inconclusive = small, poorly fitted or top-dose-only effect; inactive = no such curve, though single readings can be large or run the other way.
Thanks in advance; please answer with one of these: active, inactive

[
  {
    "COMPOUND": "C[C@H]1C[C@H]2[C@@H]3CCC4=CC(=O)C=C[C@]4(C)[C@H]3C(=O)C[C@]2(C)[C@@]1(O)C(=O)CO",
    "CATEGORY LABEL": "inactive"
  },
  {
    "COMPOUND": "Cc1cccc(C)c1NC(=O)c1cc(S(N)(=O)=O)c(Cl)cc1O",
    "CATEGORY LABEL": "inactive"
  },
  {
    "COMPOUND": "CN(C)CCN1CCN(c2cccc(Cl)c2)C1=O",
    "CATEGORY LABEL": "inactive"
  },
  {
    "COMPOUND": "CCOC(=O)C(=O)CCCCCCl",
    "CATEGORY LABEL": "inactive"
  },
  {
    "COMPOUND": "CCCCCCCCCCCC[N+](C)(C)Cc1ccccc1",
    "CATEGORY LABEL": "active"
  },
  {
    "COMPOUND": "CC(C)(C)c1cc(C=O)cc(C(C)(C)C)c1O",
    "CATEGORY LABEL": "inactive"
  },
  {
    "COMPOUND": "N#CC1(c2ccc(F)cc2)CCC(=O)CC1",
    "CATEGORY LABEL": "inactive"
  },
  {
    "COMPOUND": "CCOC(=O)OCC/C(SC(=O)OCC)=C(\\C)N(C=O)Cc1cnc(C)nc1N",
    "CATEGORY LABEL": "inactive"
  },
  {
    "COMPOUND": "CC(C)(C)C(=O)OCOC(=O)C1N2C(=O)CC2S(=O)(=O)C1(C)C (stereo not drawn)",
    "CATEGORY LABEL": "inactive"
  },
  {
    "COMPOUND": "CCC(=O)O[C@H]1[C@H](O[C@@H]2[C@@H](C)[C@H](O[C@H]3C[C@@](C)(OC)[C@@H](O)[C@H](C)O3)[C@@H](C)C(=O)O[C@H](CC)[C@@](C)(O)[C@H](O)[C@@H](C)C(=O)[C@H](C)C[C@@]2(C)O)O[C@H](C)C[C@@H]1N(C)C",
    "CATEGORY LABEL": "inactive"
  }
]

Prompt line: Could you kindly confirm the outcome this assay logged for Cc1ccc(C(=O)C(=O)O)cc1C ?
Response line: inactive

Prompt line: Test call, this compound: OC1(c2ccc(Cl)cc2)CCNCC1
Response line: inactive

Prompt line: For CC(CC(C#N)(c1ccccc1)C(C)C)N(C)C (stereo not drawn) , what call appears in the results of this test?
Response line: inactive

Prompt line: Test call for this compound, please: Oc1cccc2[nH]ccc12
Response line: inactive

Prompt line: What did the test return for CC(=O)O[C@@H]1CC2C3CCc4cc(OC(=O)c5ccccc5)ccc4C3CCC2(C)[C@H]1OC(C)=O (stereo partly drawn) ?
Response line: inactive

Prompt line: // return assay outcome for Nc1ccc(C(=O)OCC(O)CO)cc1 (stereo not drawn)
Response line: inactive

----------
Test: qHTS of pediatric cancer cell lines to identify multiple opportunities for drug repurposing: Primary screen for Rh41 cells (AID 1347108);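 further: luminescence drop marks cytotoxic hits; nearly all actives have a fitted effect of over 70% in size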
Conditions: Rh41 rhabdomyosarcoma viability, CellTiter-Glo luminescence, 48 h; series mostly up to 46 µM
Experimental: Drug repurposing or repositioning has been offered as a strategy for drug development in oncology programs. This approach has special potential for childhood cancers and other rare or orphan diseases, where the expected return on new drug development has been a disincentive to pharmaceuticals. […] We employed a titration-based paradigm (quantitative high-throughput screening or qHTS), where all compounds were tested at multiple concentrations for their effect on cell viability. […]
Inconclusive results are not listed. Active and inactive are the calls of the source. Calls come from the whole dose curve; as a rule, active = well fitted cell-killing curve with a large enough effect; inconclusive = small, poorly fitted or top-dose-only effect; inactive = no such curve, though single readings can be large or run the other way.
READOUT KIND: outcome

[
  {
    "CPD SMILES": "O=C(c1ccccc1)c1ccccc1",
    "outcome": "inactive"
  },
  {
    "CPD SMILES": "Nc1ccc(C(=O)N2CC3CC(CN(Cc4ccccc4)C3)C2)cc1",
    "outcome": "inactive"
  },
  {
    "CPD SMILES": "CC(=O)OCC(=O)Nc1cc(C#N)cc(NC(=O)COC(C)=O)c1Cl",
    "outcome": "inactive"
  },
  {
    "CPD SMILES": "OCCCc1ccccc1",
    "outcome": "inactive"
  },
  {
    "CPD SMILES": "CN1Cc2cc(C(=O)N3CCC(C4CCNCC4)CC3)ccc2N[C@@H](CC(=O)O)C1=O",
    "outcome": "inactive"
  }
]

Prompt line: For the molecule COc1ccc2c(c1)c(CC(=O)OC/C=C(\C)CC/C=C(\C)CCC=C(C)C)c(C)n2C(=O)c1ccc(Cl)cc1 , give its measured outcome value.
Response line: inactive

----------
Assay: NS1 protein of Zika virus - qHTS assay to identify small molecule inhibitors in human HEK 293 cells (AID 1347053); further: nearly all actives have a fitted effect of over 55% in size
Conditions: HEK293 ZIKV MR766 infection, NS1 TR-FRET, 24 h; series mostly up to 46.1 µM
Inconclusive results are not listed. Calls of active or inactive are those of the source. Calls come from the whole dose curve; as a rule, active = well fitted inhibition curve with a large enough effect; inconclusive = small, poorly fitted or top-dose-only effect; inactive = no such curve, though single readings can be large or run the other way.
READOUT KIND: activity change, negative = inhibition

[
  {
    "COMPOUND": "CN(C(=O)C(Cl)Cl)c1ccc(OC(=O)c2ccco2)cc1",
    "activity change, negative = inhibition": "inactive"
  },
  {
    "COMPOUND": "O=C(O)CCCC[C@@H]1SC[C@@H]2NC(=O)N[C@@H]21",
    "activity change, negative = inhibition": "inactive"
  },
  {
    "COMPOUND": "CCCCN(CCN(CCCC)C(=O)N1CCOCC1)C(=O)N1CCOCC1",
    "activity change, negative = inhibition": "inactive"
  },
  {
    "COMPOUND": "Cc1ccc(C(C)OC(=O)C2(C)CCC(C(=O)O)C2(C)C)cc1 (stereo not given)",
    "activity change, negative = inhibition": "inactive"
  },
  {
    "COMPOUND": "CC(C)C(=O)OCc1cccc(OC(=O)[C@@H]2N3C(=O)[C@@H](NC(=O)Cc4ccccc4)[C@H]3SC2(C)C)c1",
    "activity change, negative = inhibition": "inactive"
  },
  {
    "COMPOUND": "O=C(O)CCC(=O)OC[C@@H](NC(=O)C(Cl)Cl)[C@H](O)c1ccc([N+](=O)[O-])cc1",
    "activity change, negative = inhibition": "inactive"
  },
  {
    "COMPOUND": "CC(C)OC(=O)c1cc2c(OCC(O)CNC(C)(C)C)cccc2[nH]1 (stereo not given)",
    "activity change, negative = inhibition": "inactive"
  },
  {
    "COMPOUND": "CC1(C)S[C@@H]2[C@H](NC(=O)C(c3ccccc3)S(=O)(=O)O)C(=O)N2[C@H]1C(=O)O (stereo not given in full)",
    "activity change, negative = inhibition": "inactive"
  }
]

Dear colleague, could you send me activity change, negative = inhibition for each of the items below? Thanks.
1. Cc1cccc(OCC(O)CNC(C)(C)C)c1C (stereo not given)
2. Cn1c(=O)c2c(ncn2CC(=O)O)n(C)c1=O

Response line:
1. inactive
2. inactive
